target: β2 adrenergic receptor (Homo sapiens (Human), UniProt P07550); test: cAMP Gs dynamic HTRF assay, β2 expressing CHO cells; type: cell-based; details: B2-AR; CHO-K cells; read-out: Average EC50 [Receptor subtype: B2-AR; Cell type: CHO-K]
Sequence (P07550 whole entry, species assumed): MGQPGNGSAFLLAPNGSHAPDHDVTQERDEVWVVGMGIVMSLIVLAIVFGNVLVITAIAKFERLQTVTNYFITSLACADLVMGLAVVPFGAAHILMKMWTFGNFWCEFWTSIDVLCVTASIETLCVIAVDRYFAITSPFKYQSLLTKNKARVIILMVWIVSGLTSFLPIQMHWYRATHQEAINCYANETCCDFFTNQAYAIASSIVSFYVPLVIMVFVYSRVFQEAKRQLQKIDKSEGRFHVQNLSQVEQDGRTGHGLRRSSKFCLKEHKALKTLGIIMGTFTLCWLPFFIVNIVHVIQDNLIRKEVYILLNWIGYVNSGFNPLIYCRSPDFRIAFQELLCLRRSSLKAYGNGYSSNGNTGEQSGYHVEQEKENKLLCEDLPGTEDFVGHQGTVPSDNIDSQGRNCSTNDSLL
OUTCOME_MEASURE: EC50

# count of solved cases: 4
CC1(NC[C@@H](O)c2cccc(C(F)(F)F)n2)CCC1	100 to 1000 nM
CN(C)C(=O)c1cccc([C@@H](O)CNC(C)(C)C)n1	100 to 1000 nM
CC(C)Oc1cccc([C@H](O)CNC(C)(C)C)n1	100 to 1000 nM
Cc1ccc([C@H](O)CNC(C)(C)C)nc1C#N	< 10 nM

Kindly note: β2 adrenergic receptor (Homo sapiens (Human), UniProt P07550), "CC(C)c1ncccc1[C@@H](O)CNC(C)(C)C" , EC50 value reported: > 1000 nM

Entry "CC(C)(C)NC[C@@H](O)c1ccc2cccc(C(F)(F)F)c2n1" under β2 adrenergic receptor (Homo sapiens (Human), UniProt P07550) had EC50 of < 10 nM

// EC50 (β2 adrenergic receptor (Homo sapiens (Human), UniProt P07550)) for "COc1ccc(C[C@@H](C)NC[C@@H](O)c2cccc(C(F)(F)F)n2)cc1" = 10 to 100 nM

Readout EC50 for "CC1(NC[C@H](O)c2cccc(C(F)(F)F)n2)CCC1" , test system β2 adrenergic receptor (Homo sapiens (Human), UniProt P07550), was < 10 nM

# "CC(C)(C)NC[C@H](O)c1cccnc1-c1cccc(F)c1" with β2 adrenergic receptor (Homo sapiens (Human), UniProt P07550): EC50 is > 1000 nM

----------
target: β1-adrenergic receptor (Homo sapiens (Human)); assay: cAMP Gs dynamic HTRF assay, β1 expressing CHO cells; assay type: cell-based; details: B1-AR; CHO-K1 (HitHunter); read-out: Average pEC50 [Receptor subtype: B1-AR; Cell type: CHO-K1 (HitHunter)] (converted)
Sequence (P08588 whole entry, species assumed): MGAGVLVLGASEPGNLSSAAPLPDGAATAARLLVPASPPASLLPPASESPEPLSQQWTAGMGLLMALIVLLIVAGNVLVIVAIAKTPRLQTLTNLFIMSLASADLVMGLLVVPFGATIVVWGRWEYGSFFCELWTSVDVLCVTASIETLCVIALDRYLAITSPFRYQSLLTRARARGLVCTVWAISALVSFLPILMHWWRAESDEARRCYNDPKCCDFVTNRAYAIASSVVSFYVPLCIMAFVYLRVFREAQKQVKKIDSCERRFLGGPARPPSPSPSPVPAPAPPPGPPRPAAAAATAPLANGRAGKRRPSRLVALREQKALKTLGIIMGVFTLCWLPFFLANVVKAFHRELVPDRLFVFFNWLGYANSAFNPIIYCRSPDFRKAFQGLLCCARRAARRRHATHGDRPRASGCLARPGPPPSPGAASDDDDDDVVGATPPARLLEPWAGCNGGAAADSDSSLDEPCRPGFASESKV
OUTCOME_MEASURE: EC50

Illustrative cases are given below, each with its answer.
CC(C)(C)NC[C@H](O)c1cccc(NC2(C)CC2)n1	10 to 100 nM
CC(C)(C)NC[C@H](O)c1cccc(NC2CC(F)(F)C2)n1	10 to 100 nM
CC(C)(C)NC[C@H](O)c1cccc(C(C)(C)C)n1	< 10 nM

Lab note: compound "C=CCc1ncccc1[C@@H](O)CNC(C)(C)C" tested on β1-adrenergic receptor (Homo sapiens (Human)); recorded EC50 was > 1000 nM

Observed EC50, β1-adrenergic receptor (Homo sapiens (Human)), "CCOc1ncccc1[C@@H](O)CNC(C)(C)C" : 10 to 100 nM

The reported EC50 value, β1-adrenergic receptor (Homo sapiens (Human)), for "CC(C)(C)NC[C@H](O)c1cccc(C(F)F)n1" reads 10 to 100 nM

Noted EC50 for CC(C)(C)NC[C@H](O)c1cccc(NC2CC(F)C2)n1 (stereo partly drawn) , tested on β1-adrenergic receptor (Homo sapiens (Human)): < 10 nM

Item: "CC(C)(C)NC[C@H](O)c1cccc(-n2nccn2)n1" | System: β1-adrenergic receptor (Homo sapiens (Human)) | EC50: > 1000 nM

β1-adrenergic receptor (Homo sapiens (Human)) EC50 of "Cc1ccc(-c2cccc([C@@H](O)CNC(C)(C)C)n2)cc1" is > 1000 nM
